Assay: yeast display, Sf9 membrane polyspecificity reagent, FACS + sequencing; frameworks hold sequencing errors
experimental.endpoint: polyreactivity (PSR sort gate)

| polymer.sequence | experimental.endpoint | recorded.result |
| --- | --- | --- |
| QVQLVESGGGLVQAVGSLRLSCAASGLTFYPNAMGWYRQAPGKERQFVDSISISGRTYYADSVKGRFTISRDNAKNTVYLQMNSLKPEDTAVYYCAARYVRSGLYRKYDYWGQGTQVTVSS | polyreactivity (PSR sort gate) | high polyreactivity |
| QVQLVESGGGLVQAGGSLRLSCAASGRIFRSYALGWYRQAPGKERELVAAISSSDGSTYYADSVKGRFTISRDNAKNTVYLQMNSLKPEDTAVYYCNAEQVCYTYGRYPEWYLYGYWGQGTQVTVSS | polyreactivity (PSR sort gate) | low polyreactivity |
| QVQVVQSGGGLVQAGGSLSLSCAASGNTFYGYAMGWYRQAPGNESEFVASITLSGDSTYYADSVKGRFTISRDNAQNTVYLQMNSLKPEDTAVYYCAGVYTYPLGYYHYTYDYWGQGTQVTVSS | polyreactivity (PSR sort gate) | low polyreactivity |
| QVQLVESGGGLVQAGGSLRLSCAASGSTFGRYAMGWYRQAPGKERELVAAITRSGGRTYYADSLKGRFTISRDNAKNTVYLQMNSLKPEDTAVYYCAAVGNLYYTSHWQYDYWGQGTQVTVSS | polyreactivity (PSR sort gate) | high polyreactivity |
| QVQLVESGGCLVQAGGSLRLSCAASRITFRWYAMGWYRQAPGKDRELVAAISRSGASTYYADSVKGRFTISRDNAKNTVYLQMNSLKPEDTAVYYCAKEKTTYYWATYDYWGQGTQVTVSS | polyreactivity (PSR sort gate) | high polyreactivity |
| QVQLVESGRGLVQAGGSLRLSCAASGRTFWTYTMGCYRQAPWKEREFVAAITFGDGSTSYADYVKGRFTISRDNAKNTVFLQMNSLKQEDTAVYYCAKRWRRRFVDVWSLYDYWGHGTQVTVSS | polyreactivity (PSR sort gate) | low polyreactivity |
| QVQLVESGGGLVQAGGSLRLSCAASGFAFSHYAMGWYRQAPGKERELVAAISWGGGSTYYADSVKGRFTISRDNAKNTVYLQMNSLRPEDTAVYYCAASIWLRYHWGYDYWGQGTQVTVSS | polyreactivity (PSR sort gate) | high polyreactivity |
| QVQLVESGGGLVQAGGSLRLSCAASGRIFHQNTMGWYRQAPGKERELVAAISATGGGTNYADSVKGRFTISRDNAKNTVYLQMNSLKPEDTAVYYCAVRPKTSWYSWYYWGQGTQVTVSS | polyreactivity (PSR sort gate) | low polyreactivity |
| QVLRVDSGGGLVQAGGSLRLSCAASGSIFGFYARGWDRQAPGTERELVAAITFSGGSTDYTDSVKGRFTISSDNAKNTVYLQMNSLKTEDTSVYYCADRGYAIYSYWYYEPYDYWGQGTQVTVSS | polyreactivity (PSR sort gate) | high polyreactivity |
| QVQLVESGGGLVQAGASLRLSCAASGRIFNIYALGWYRQAPGKERELVADITSGGTTYADSVKWRFTISRDNAKNTVYLQMNSLKPEDTAVYYCAAVYRYRNRRDYDYWGQGTQVTVSS | polyreactivity (PSR sort gate) | high polyreactivity |
| QVQLVESGGGLVQAGGSLRLSCAASGRTFVGNAMGWYRQAPGKERELVATITRRGGSTYYADSVKGRFTISRDNAKNTVYLQMNSLKPEDTAVYYCAAGSQPGRKYYYWGQGTQVTVSS | polyreactivity (PSR sort gate) | high polyreactivity |
